Target: human ether-à-go-go-related gene (hERG) potassium channel (human);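 further: peak tail current of the secondary pulse compared with the same well before compound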
Experiment: primary screen, population patch clamp on CHO cells stably expressing hERG; higher = less effect of the substance
About 14,000 (4.5%) of roughly 310,000 compounds showed an effect of 50% or more. The effect is printed as a negative number. For the sample, strong results were picked, then their nearest neighbours and some compounds at random.
Note to self: values exactly at -10% are Fulfilled. So hERG current change (%, negative = inhibition) at 10uM at or above -10% is Fulfilled, below is Not fulfilled.

Example entries and their recorded answers appear below.
> print(dat)
                                   molecule  classification
1  COc1ccc(C2c3ccc4ccccc4c3Oc3ncn(CCN(C)C)c(=N)c32)cc1 (centres unmarked)   Not fulfilled
2  COc1ccc(C2c3c(ccc4ccccc34)Oc3ncn4nc(-c5ccco5)nc4c32)cc1 (centres unmarked)   Not fulfilled
3              CCOc1ccc2nc(C)cc(C(=O)O)c2c1       Fulfilled

Check this molecule for hERG current change (%, negative = inhibition) at 10uM at or above -10%: `COc1cc([N+](=O)[O-])ccc1NC(=O)CN(C)C`
Not fulfilled

Identify whether the reported hERG current change (%, negative = inhibition) at 10uM of the following molecule is -10% or greater: `Cc1cc(NS(=O)(=O)c2ccc(NC(=O)c3ccc(Cl)cc3Cl)cc2)no1`
Fulfilled

---

Molecular target: human ether-à-go-go-related gene (hERG) potassium channel (human);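 further: peak tail current of the secondary pulse compared with the same well before compound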
Experiment: primary screen, population patch clamp on CHO cells stably expressing hERG; higher = less effect of the substance
Out of some 310,000 compounds screened, about 14,000 (4.5%) showed an effect of 50% or more. Effects have a minus sign here. Only a selection was taken, and strong results are over-represented in it overall.
experimental readout: hERG current change (%, negative = inhibition) at 10uM
Number first, unit second.

> print(dat)
                                   compound  meas.value
1                   Cc1cc(NO)c(C(C)C)cc1N=O      -2.87%
2  CCOC(=O)N1CCN(S(=O)(=O)c2cc(Cl)c(OC)cc2Cl)CC1       4.96%
3          CN(C)CC#CCC(O)(c1ccccc1)c1ccccc1      -2.15%
4  Cc1ccc(-c2nc(CS(=O)CC(=O)NCCCN3CCN(Cc4ccccc4)CC3)c(C)o2)cc1 (centres unmarked)      -38.2%
5  Cc1ccccc1-c1nc(CS(=O)CC(=O)NCc2ccccc2)c(C)o1 (centres unmarked)        -21%

State the recorded hERG current change (%, negative = inhibition) at 10uM for this entry: CCN1CCN(CC2COc3ccccc3O2)CC1.Cl (centres unmarked)
-4.7%

Given the compound `O=C(COC(=O)Cc1ccc(F)cc1)NC1CCCC1` , what is its reported hERG current change (%, negative = inhibition) at 10uM?
4.84%

---

The entries below come with measured hERG current change (%, negative = inhibition) at 10uM values attached.
Target: human ether-à-go-go-related gene (hERG) potassium channel (human, UniProt Q12809);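 further: peak tail current of the secondary pulse compared with the same well before compound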
Sequence (Q12809 whole entry, looked up): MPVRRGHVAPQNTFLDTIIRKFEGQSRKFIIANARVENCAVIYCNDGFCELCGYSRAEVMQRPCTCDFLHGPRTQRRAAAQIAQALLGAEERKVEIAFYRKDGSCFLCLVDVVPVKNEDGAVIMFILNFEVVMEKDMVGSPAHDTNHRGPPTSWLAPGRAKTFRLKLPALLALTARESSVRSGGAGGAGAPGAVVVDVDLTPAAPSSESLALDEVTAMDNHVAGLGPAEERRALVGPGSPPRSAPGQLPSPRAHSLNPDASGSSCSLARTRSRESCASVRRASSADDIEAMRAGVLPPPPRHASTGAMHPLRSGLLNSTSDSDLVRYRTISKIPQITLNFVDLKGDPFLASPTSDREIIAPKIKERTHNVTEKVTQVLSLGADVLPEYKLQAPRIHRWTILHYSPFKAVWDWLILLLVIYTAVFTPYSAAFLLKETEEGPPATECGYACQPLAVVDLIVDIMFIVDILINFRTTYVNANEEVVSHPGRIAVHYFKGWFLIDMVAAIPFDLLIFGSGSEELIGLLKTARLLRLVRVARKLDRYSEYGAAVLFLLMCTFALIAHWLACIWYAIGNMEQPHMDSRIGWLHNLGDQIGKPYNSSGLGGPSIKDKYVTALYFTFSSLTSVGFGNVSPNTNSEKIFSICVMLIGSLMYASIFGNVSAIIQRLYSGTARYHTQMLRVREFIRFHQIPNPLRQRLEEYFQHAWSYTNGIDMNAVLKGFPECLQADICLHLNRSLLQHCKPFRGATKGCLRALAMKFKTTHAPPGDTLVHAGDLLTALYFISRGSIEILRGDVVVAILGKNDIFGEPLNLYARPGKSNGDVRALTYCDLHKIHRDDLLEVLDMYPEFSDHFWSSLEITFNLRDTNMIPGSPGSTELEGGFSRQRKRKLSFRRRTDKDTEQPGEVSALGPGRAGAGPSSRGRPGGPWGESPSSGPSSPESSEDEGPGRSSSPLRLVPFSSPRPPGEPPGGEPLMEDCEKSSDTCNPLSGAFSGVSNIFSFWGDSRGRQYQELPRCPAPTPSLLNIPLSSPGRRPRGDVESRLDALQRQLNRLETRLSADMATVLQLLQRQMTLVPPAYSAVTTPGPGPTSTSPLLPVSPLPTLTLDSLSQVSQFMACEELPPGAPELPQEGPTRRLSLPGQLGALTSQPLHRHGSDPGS
Assay: primary screen, population patch clamp on CHO cells stably expressing hERG; higher = less effect of the substance
Among all 310,000 compounds or so, about 14,000 (4.5%) showed an effect of 50% or more. The effect is printed as a negative number. This excerpt belongs to a sample that is enriched for strong results.
Write the value in % as a bare number.

# count of solved cases: 2
> print(dat)
                           smiles.structure  meas.value
1  CCc1ccccc1NC(=O)CN1CCN(C(=O)CCC(=O)N2CCC(c3ccccc3)=N2)CC1         -58
2  CCc1ccccc1NC(=O)CN1CCN(C(=O)CNC(=O)Cc2cccc3ccccc23)CC1       -59.6

Record request: hERG current change (%, negative = inhibition) at 10uM value, item `Cc1cccc(NC(=O)CNC(=O)COc2ccc(-c3ccc(C#N)cc3)cc2)c1C`
4.86
